Tested on: HBV RNA
Experiment: Transient transfection of Huh-7 cells, cytoplasmic RNA quantified by RT-PCR
Assay type: cell-based, hepatitis B virus
Conditions: Hepatitis B virus, Huh-7, 96 h; huh7 transient transfection, drug daily for four days; read-out: EC50 for RNA suppression
recorded endpoint: EC50 (nM)
Record the value in nM, omitting the unit from your answer.

Some compounds with recorded EC50:
COc1ccccc1/C(Br)=C(\NC(=O)c1ccc([N+](=O)[O-])cc1)C(=O)N1CCCCC1 : 500
COC(=O)C1=C(CN2CCNCC2)NC(c2ccccn2)=NC1c1ccc(F)cc1Cl (stereo not drawn) : 5000

Short answer please: EC50, HBV RNA, entry COC(=O)C1=C(CN2CCOCC2)NC(c2ccccn2)=NC1c1ccc(F)cc1Cl (stereo not drawn)
500
